# assay system: T1, recombinant human CD14 (B294801, histidine tagged) (Homo sapiens, UniProt P08571)
# T1 construct: His; purchased Shanghai BaiYing Biotechnology Co., Ltd B294801 (Batch number 20200518A22)
# T1 sequence (P08571 20-345): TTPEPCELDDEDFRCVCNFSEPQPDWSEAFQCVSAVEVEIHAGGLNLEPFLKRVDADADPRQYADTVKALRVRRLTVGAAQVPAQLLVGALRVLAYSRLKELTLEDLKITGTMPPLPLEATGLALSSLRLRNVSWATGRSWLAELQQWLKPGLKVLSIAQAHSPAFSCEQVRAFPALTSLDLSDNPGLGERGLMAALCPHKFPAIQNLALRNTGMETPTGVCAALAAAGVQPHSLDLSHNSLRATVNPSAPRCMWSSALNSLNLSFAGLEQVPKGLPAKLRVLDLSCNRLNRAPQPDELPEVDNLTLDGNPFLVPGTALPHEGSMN
# assay protocol: Biacore 8K kinetic and affinity test of humanized antibodies (Example 8)
# Type: binding
# condition: Biacore 8K, analyte B294801 0.78125-25 nM, capture 1 μg/mL
Listed molecules paired with reported koff (1:1 binding)
Report as a plain number; the unit s⁻¹ is understood.

See these solved cases before continuing.
Please report the recorded koff (1:1 binding) for D6DD3D016: humanized anti-CD14 antibody; VH SEQ ID NO: 61, VL SEQ ID NO: 63 (antibody, V domains shown) VH: QVQLQESGPGLVKPSQTLSLTCTVSGYSITSDSAWNWIRQPPGKGLEWIGYISYSGSTSYNPSLKSRVTISRDTSKNQFSLKLSSVTAADTAVYYCVRGLRFAYWGQGTLVTVSS VL: DIQLTQSPSSLSASVGDRVTITCRASESVDSYVNSFLHWYQQKPGKAPKLLIYRASNLQSGVPSRFSGSGSRTDFTLTISSLQPEDVATYYCQQSNEDPYTFGQGTKLEIK . 0.000904

koff (1:1 binding) lookup needed for D6DD3D011: humanized anti-CD14 antibody; VH SEQ ID NO: 41, VL SEQ ID NO: 43 (antibody, V domains shown) VH: QVQLQESGPGLVKPSQTLSLTCTVSGYSITSDSAWNWIRQPPGKGLEWIGYISYSGSTSYNPSLKSRVTISRDTSKNQFSLKLSSVTAADTAVYYCVRGLRFAYWGQGTLVTVSS VL: DIVLTQSPDSLAVSLGERATINCRASESVDSYVNSFLHWYQQKPGQPPKLLIYRASNLQSGVPDRFSGSGSRTDFTLTISSLQAEDVAVYYCQQSNEDPYTFGQGTKLEIK , thanks. 0.00109

We next turn to a different molecule, shown below.
Which koff (1:1 binding) value is on record for D6DD3D006: humanized anti-CD14 antibody; VH SEQ ID NO: 21, VL SEQ ID NO: 23 (antibody, V domains shown) VH: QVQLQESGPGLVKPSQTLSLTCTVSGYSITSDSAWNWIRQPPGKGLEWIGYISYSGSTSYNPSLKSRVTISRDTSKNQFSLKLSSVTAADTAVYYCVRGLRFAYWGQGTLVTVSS VL: EIVLTQSPATLSLSPGERATLSCRASESVDSYVNSFLHWYQQKPGQAPRLLIYRASNLQSGIPARFSGSGSRTDFTLTISSLEPEDVAVYYCQQSNEDPYTFGQGTKLEIK ? 0.000862

Origin of the recorded values: patent US20250011456A1
